# Test Protocol: protection of differentiated C2C12 cells from simvastatin – single point, plate reader, primary screen (AID 602340);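 further: myotubes were challenged with 10 µM simvastatin during compound exposure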
# Experimental Conditions: C2C12 myotubes + simvastatin, ATP luminescence, 48 h; at 7.49 µM; active compounds read high; scaled: DMSO 0, geranylgeraniol control 100
The campaign covered roughly 330,000 compounds. About 2,600 (0.79%) were called active. The sample holds actives, similar compounds and a random draw of the others, so the mix is not that of the screen.

| Compound | rescue of ATP level, % |
| --- | --- |
| COCC(=O)N(C[C@H]1N[C@H](CO)[C@H]1c1ccc(C2=CCCCC2)cc1)C(C)C | -22.7 |
| O=C(Nc1cccc(Cl)c1)N[C@H]1CC[C@H](CCNC(=O)C2CCOCC2)O[C@H]1CO | -25.3 |
| CC=Cc1ccc2n(c1=O)C[C@H]1[C@H](CO)[C@@H](C(=O)NC3CCCC3)N(Cc3cccnc3)[C@@H]21 (mixture of isomers) | -41.8 |
| CCCc1ccc(-c2csc(NC(=O)Cc3cccs3)n2)cc1 | 20.4 |
| C[C@@H](NC(=O)[C@H]1[C@H](CO)[C@H]2Cn3c(cccc3=O)[C@@H]1N2Cc1cccnc1)c1ccccc1 | -8.14 |

###

# Test Protocol: protection of differentiated C2C12 cells from simvastatin – single point, plate reader, primary screen (AID 602340);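 further: myotubes were challenged with 10 µM simvastatin during compound exposure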
# Experimental Conditions: C2C12 myotubes + simvastatin, ATP luminescence, 48 h; at 7.49 µM; active compounds read high; scaled: DMSO 0, geranylgeraniol control 100
Out of some 330,000 compounds screened, about 2,600 (0.79%) were called active. Shown is part of a subset that was picked to be rich in actives.

| Molecule Smiles | rescue of ATP level [%] |
| --- | --- |
| O=C(Nc1ccccc1F)N1C[C@H]2[C@@H](c3ccccc31)[C@H](CO)N2C(=O)c1ccccn1 | 45.1 |
| Cc1ccccc1-n1c(SCC(=O)Nc2cccc3ccccc23)nc(O)cc1=O | 7.58 |
| COCC(=O)Nc1ccc2c(c1)C(=O)N(C)[C@H]1CC[C@@H](CC(=O)Nc3cn(C)nc3C)O[C@@H]1CO2 | -1.7 |
| Cc1ccc(-n2nc3ccc(NC(=O)/C=C/c4ccco4)cc3n2)cc1C | 97.3 |
| CC(C)Cn1c(SCC(=O)Nc2ccc(Cl)cc2F)nc(O)cc1=O | 95.3 |
| C[C@H](CO)N1C[C@H](C)[C@H](CN(C)C(=O)c2ccccn2)Oc2ncc(-c3ccccc3F)cc2C1=O | 16.4 |
| C[C@H](CO)N1C[C@H](C)[C@H](CN(C)Cc2ccncc2)Oc2ccc(NS(=O)(=O)c3cn(C)cn3)cc2C1=O | -11.2 |
| C[C@@H](NC(=O)C[C@@H]1CC[C@H](NC(=O)Cc2ccccn2)[C@H](CO)O1)c1ccccc1 | 4.66 |
| CCNC(=O)C[C@@H]1C=C[C@@H](NC(=O)C2CCOCC2)[C@@H](CO)O1 | -1.82 |
| CCC(=O)N[C@H]1CC[C@H](CCn2cc(-c3cccc(OC)c3)nn2)O[C@H]1CO | -2.48 |
| CC(=O)N1[C@@H](CO)[C@H](c2ccccc2)[C@@H]1CN(C(=O)c1ccccc1)C(C)C | 3.57 |

###

# Test Protocol: protection of differentiated C2C12 cells from simvastatin – single point, plate reader, primary screen (AID 602340);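 further: myotubes were challenged with 10 µM simvastatin during compound exposure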
# Experimental Conditions: C2C12 myotubes + simvastatin, ATP luminescence, 48 h; at 7.49 µM; scaled: DMSO 0, geranylgeraniol control 100
In all, about 330,000 compounds went through this assay and about 2,600 (0.79%) were called active.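 The calls were made as follows: active = mean ATP rescue above about 67%, or every replicate alone reaching that limit (limit read from the data, passing the limit was not always enough); inconclusive = no clear call, values can overlap the other calls; inactive = mean under the limit and some replicate under it.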 The sample holds actives, similar compounds and a random draw of the others, so the mix is not that of the screen.
Labels: class 1 (active), class 0 (inactive)

| Molecule Smiles | Qualitative Label |
| --- | --- |
| Cc1cc(C(=O)OCC(=O)c2c(N)n(C)c(=O)n(C)c2=O)c(C)o1 | class 1 |
| CN1CCCCN2[C@H](CO)[C@H](c3ccc(-c4ccc(F)cc4)cc3)[C@@H]2C1 | class 0 |
| O=C(C[C@@H]1C=C[C@H](NC(=O)Nc2ccc(C(F)(F)F)cc2)[C@H](CO)O1)NCc1cccc(F)c1 | class 0 |
| O=C(NCC[C@@H]1CC[C@H](NC(=O)C2CCCCC2)[C@@H](CO)O1)Nc1ccc(Cl)cc1 | class 0 |
| O=C(/C=C/Sc1ncn[nH]1)c1ccc(Cl)cc1 | class 1 |
| CCC1(CC)NC(=O)N(CC(=O)OCC(=O)NC(=O)c2ccccc2)C1=O | class 0 |
| C[C@@H]1CCCCO[C@@H](CN(C)C(=O)NC2CCCCC2)[C@H](C)CN([C@H](C)CO)C(=O)c2cc(NC(=O)Nc3cccc4ccccc34)ccc2O1 | class 0 |
| CC(C)C#Cc1ccc2c(c1)O[C@@H](CN(C)C(=O)CN(C)C)[C@@H](C)CN([C@H](C)CO)S2(=O)=O | class 0 |
| CCC1(CC)NC(=O)N(CC(=O)OCC(=O)c2cc(C)c(C)cc2C)C1=O | class 0 |
| O=C(c1cccnc1)N1CC[C@@H]2[C@@H](CO)Nc3ccc(-c4ccccc4)cc3[C@@H]21 | class 0 |
| O=C(C[C@@H]1C[C@@H]2c3cc(NC(=O)Nc4ccccc4F)ccc3O[C@@H]2[C@@H](CO)O1)NCCc1ccccc1 | class 0 |
| CCCNC(=O)C[C@H]1CC[C@H]2[C@@H](COC[C@H](O)CN2C(=O)Nc2c(C)noc2C)O1 | class 0 |
